System: L1210 leukemia ip in BDF1 mice, survival T/C
Assay: NCI In Vivo Anticancer Drug Screen. Data for tumor model L1210 Leukemia (intraperitoneal) in B6D2F1 (BDF1) mice
Conditions: endpoint: mean survival time; dose: 200.0 mg/kg/injection; schedule: Q01DX005 (ip); vehicle: saline; higher = longer survival
Toxic doses and inconclusive results are not listed.
assay metric: T/C

Prompt: Given Cn1nc2c(N)ncnc2c1C1OC(CO)C(O)C1O (centres undefined) , state its recorded T/C.
Completion: 106 % of control

Prompt: Proceed to CCSC(C(O)C(O)C(O)CO)n1ccc(=O)[nH]c1=O (centres undefined)
Completion: 93 % of control

Prompt: Proceed to N/N=C(\N)c1nn(C2OC(CO)C(O)C2O)c2ncnc(N)c12 (centres undefined)
Completion: 113 % of control

Prompt: Proceed to CCOC(=O)c1cn(C2OC(COC(C)=O)C(OC(C)=O)C2OC(C)=O)c2nc(SC)nc(NC(C)=O)c2c1=O (centres undefined)
Completion: 91 % of control

The measured values listed here are drawn from PubChem BioAssay AID248.
